# tested system: P2X3 (Homo sapiens, UniProt P56373)
# Construct: expressed in transfected cells; host or cells: e.g. HEK293 or 1321N1
# test: Calcium uptake assay (P2X antagonist assay, inhibition of agonist-induced calcium influx), P2X3
# Format: cell-based
# measurement context: inhibition of agonist-induced calcium influx in cells expressing the receptor
attribute measured: IC50 (µM)

Examples from the recorded data:
// lookup IC50 for "Cc1ccc(N2CCc3ncnc(NCc4ncc(Cl)cc4Cl)c3C2)c(C#N)c1" 0.041

// same read-out, input: "COc1ccc([C@@H](CO)Nc2ncnc3c2CN(c2ccc(Cl)cc2C#N)CC3)cn1" 0.023

// same read-out, input: "Cc1ccc(CNc2ncnc3c2CN(c2ccc(Cl)cc2C#N)CC3)cc1S(C)(=O)=O" 0.04

// same read-out, input: "Cc1ccc(N2CCc3ncnc(NCc4cccc(C#N)c4)c3C2)c(C#N)c1" 0.183

// same read-out, input: "N#Cc1cc(Cl)ccc1N1CCc2ncnc(NCc3ccc(Cl)c(-n4cnnc4)c3)c2C1" 0.041

1: Cc1ccc(N2CCc3ncnc(N[C@@H](CCO)c4ccc(C(F)(F)F)nc4)c3C2)c(C#N)c1
2: N#Cc1cc(Cl)ccc1N1CCc2ncnc(N[C@H](CO)c3ccc(C(F)(F)F)nc3)c2C1
Lab note: record which item had the higher IC50, 1 or 2 . Record your answer as the label of the chosen record. 1

====

# tested system: P2X2/3 (Homo sapiens, UniProt P56373+Q9UBL9)
# test: Calcium uptake assay (P2X antagonist assay, inhibition of agonist-induced calcium influx), P2X2/3
# measurement context: inhibition of agonist-induced calcium influx in cells expressing the receptor
pIC50: −log10 of the molar value.
attribute measured: pIC50

// lookup pIC50 for Cc1ccc(N2CCc3ncnc(NCc4ccc(C)c(I)c4)c3C2)c(C#N)c1 [Compound 55] 5.89

// same read-out, input: Cc1ccc(N2CCc3ncnc(NCc4ncc(Cl)cc4Cl)c3C2)c(C#N)c1 [Compound 32] 7.30

// same read-out, input: Cc1ccc(N2CCc3ncnc(N[C@@H](CCO)c4ccc(C(F)(F)F)nc4)c3C2)c(C#N)c1 [Compound 65] 5.27

// same read-out, input: Cc1ccc(N2CCc3ncnc(NCc4ccc(Cl)c(-n5cnnc5)c4)c3C2)c(C#N)c1 [Compound 50] 7.20

// same read-out, input: COc1ccc([C@@H](CCO)Nc2ncnc3c2CN(c2ccc(Cl)cc2C#N)CC3)cn1 [Compound 34] 6.98

// same read-out, input: Cc1ccc(N2CCc3ncnc(N[C@H](CCO)c4ccc(C(F)(F)F)nc4)c3C2)c(C#N)c1 [Compound 64] 7.23

I: Cc1ccc(N2CCc3ncnc(NCc4cccc(C#N)c4)c3C2)c(C#N)c1 [Compound 36]
II: Cc1ccc(N2CCc3ncnc(NCc4ccc5ccccc5n4)c3C2)c(C#N)c1 [Compound 80]
III: N#Cc1cc(Cl)ccc1N1CCc2ncnc(N[C@H](CO)c3ccc(C(F)(F)F)nc3)c2C1 [Compound 47]
// ascending sort on recorded pIC50 Answer by listing the labels in the requested order. I, III, II

P: N#Cc1cc(F)ccc1N1CCc2ncnc(NCc3ccc(C(F)(F)F)nc3)c2C1 [Compound 9]
Q: N#Cc1cc(Cl)ccc1N1CCc2ncnc(NCc3ncc(C(F)(F)F)cc3Cl)c2C1 [Compound 16]
Lab note: record which item had the higher pIC50, P or Q . Record your answer as the label of the chosen record. Q
(Q: 5.95, P: 4.94)

I: Cc1ccc(N2CCc3ncnc(NCc4cccc(-n5cnnc5)c4)c3C2)c(C#N)c1 [Compound 53]
II: N#Cc1cc(Cl)ccc1N1CCc2ncnc(N[C@H](CCO)c3ccc(C(F)(F)F)nc3)c2C1 [Compound 20]
III: Cc1ccc(N2CCc3ncnc(NCc4ccc(C)c(S(C)(=O)=O)c4)c3C2)c(C#N)c1 [Compound 59]
// ascending sort on recorded pIC50 Answer by listing the labels in the requested order. II, I, III
(II: 6.04, I: 6.49, III: 7.26)

====

# tested system: P2X3 (Homo sapiens)
# test: Calcium uptake assay (P2X antagonist assay, inhibition of agonist-induced calcium influx), P2X3
# measurement context: inhibition of agonist-induced calcium influx in cells expressing the receptor
# Protocol: The human P2X2/3 chimera clone is created as described by Neelands et al, and then cloned into an expression vector as above. […] Functional activity of compounds at the P2X receptor is determined by measuring their ability to inhibit agonist-induced calcium influx. […] At the start of each screening day, the agonist EC50 is determined. Compound % inhibition or IC50s are subsequently determined using a pre-determined agonist concentration (EC50-90 depending on cell line) as a stimulus. […]
attribute measured: IC50 (nM)

1: Cc1ccc(N2CCc3ncnc(NCc4ccc5cc[nH]c5c4)c3C2)c(C#N)c1
2: Cc1nc(C(F)(F)F)ccc1CNc1ncnc2c1CN(c1ccc(Cl)cc1C#N)CC2
Lab note: record which item had the higher IC50, 1 or 2 . Record your answer as the label of the chosen record. 1
(1: 423 nM, 2: 187 nM)

A: Cc1ccc(N2CCc3ncnc(NCc4cccc(-n5cnnc5)c4)c3C2)c(C#N)c1
B: COc1ccc([C@@H](CC(=O)O)Nc2ncnc3c2CN(c2ccc(Cl)cc2C#N)CC3)cn1
Lab note: record which item had the higher IC50, A or B . Record your answer as the label of the chosen record. B
(B: 1380 nM, A: 65 nM)

1: N#Cc1cc(Cl)ccc1N1CCc2ncnc(N[C@H](CCO)c3ccc(C(F)(F)F)nc3)c2C1
2: Cc1ccc(N2CCc3ncnc(NCc4ccc5ocnc5c4)c3C2)c(C#N)c1
Lab note: record which item had the higher IC50, 1 or 2 . Record your answer as the label of the chosen record. 1

====

# tested system: P2X2/3 (Homo sapiens, UniProt P56373+Q9UBL9)
# Sequence (Q9UBL9 1-471): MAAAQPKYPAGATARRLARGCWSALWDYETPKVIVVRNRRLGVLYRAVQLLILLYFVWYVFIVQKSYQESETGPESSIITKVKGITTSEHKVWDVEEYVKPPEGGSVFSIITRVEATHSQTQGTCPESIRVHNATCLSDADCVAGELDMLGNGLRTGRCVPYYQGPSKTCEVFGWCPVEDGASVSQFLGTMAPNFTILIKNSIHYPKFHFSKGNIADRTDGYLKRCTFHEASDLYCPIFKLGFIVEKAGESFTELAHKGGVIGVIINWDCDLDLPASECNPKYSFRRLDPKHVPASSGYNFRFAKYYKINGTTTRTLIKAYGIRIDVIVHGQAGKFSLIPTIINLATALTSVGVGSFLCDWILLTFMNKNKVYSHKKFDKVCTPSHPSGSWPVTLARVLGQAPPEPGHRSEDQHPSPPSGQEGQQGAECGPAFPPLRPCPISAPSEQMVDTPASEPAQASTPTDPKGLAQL
# Sequence (P56373 1-397): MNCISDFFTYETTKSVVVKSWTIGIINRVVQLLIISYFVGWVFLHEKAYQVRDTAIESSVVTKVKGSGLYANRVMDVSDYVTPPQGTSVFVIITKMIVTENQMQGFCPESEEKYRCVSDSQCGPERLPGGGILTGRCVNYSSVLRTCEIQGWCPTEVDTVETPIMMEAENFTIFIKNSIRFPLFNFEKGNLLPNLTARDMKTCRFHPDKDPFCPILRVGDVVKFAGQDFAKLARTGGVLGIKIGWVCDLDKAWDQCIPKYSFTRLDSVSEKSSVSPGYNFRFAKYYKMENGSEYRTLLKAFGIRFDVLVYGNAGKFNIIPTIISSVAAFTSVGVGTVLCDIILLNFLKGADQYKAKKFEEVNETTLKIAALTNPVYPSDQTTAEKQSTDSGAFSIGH
# test: Calcium uptake assay (P2X antagonist assay, inhibition of agonist-induced calcium influx), P2X2/3
# measurement context: inhibition of agonist-induced calcium influx in cells expressing the receptor
pIC50: −log10 of the molar value.
attribute measured: pIC50

// lookup pIC50 for "Cc1ccc(N2CCc3ncnc(N[C@H](CO)c4ccc(C(F)(F)F)nc4)c3C2)c(C#N)c1" 7.15

// same read-out, input: "Cc1ccc(N2CCc3ncnc(NCc4ccc(C)c(-n5cncn5)c4)c3C2)c(C#N)c1" 7.04

// same read-out, input: "N#Cc1cc(Cl)ccc1N1CCc2ncnc(NCc3ccc4nccnc4c3)c2C1" 6.32

// same read-out, input: "Cc1ccc(N2CCc3ncnc(N[C@H](CCO)c4ccc(C(F)F)nc4)c3C2)c(C#N)c1" 7.37

// same read-out, input: "Cc1ccc(N2CCc3ncnc(NCc4ccc(Cl)cn4)c3C2)c(C#N)c1" 6.82

// same read-out, input: "Cc1ccc(N2CCc3ncnc(NCc4ccc5nccnc5c4)c3C2)c(C#N)c1" 7.17

P: COc1ccc(CNc2ncnc3c2CN(c2ccc(Cl)cc2C#N)CC3)cn1
Q: Cc1ccc(N2CCc3ncnc(NCc4ccc5c(c4)OCO5)c3C2)c(C#N)c1
R: N#Cc1cc(Cl)ccc1N1CCc2ncnc(NCc3ccc(C(F)(F)F)nc3)c2C1
Order the 3 molecules from highest to lowest pIC50. Answer by listing the labels in the requested order. P, Q, R
(P: 6.77, Q: 6.51, R: 6.07)

1: Cc1ccc(N2CCc3ncnc(NCc4ccc5cc[nH]c5c4)c3C2)c(C#N)c1
2: Cc1ccc(N2CCc3ncnc(NCc4ccc(Cl)c(S(C)(=O)=O)c4)c3C2)c(C#N)c1
Hey, between 1 and 2 which has a smaller measured pIC50? Record your answer as the label of the chosen record. 1
(1: 5.66, 2: 6.92)

All values here come from patent US20120149700A1.
